target: HLA-B*07:02
experiment-description: IEDB peptide-MHC binding, purified MHC/competitive/fluorescence; bounds were set here for any values at or beyond the usual limits of such assays
condition-context: source organism: Sudan ebolavirus
quantity-name: IC50 (µM)
Write the answer as a number in µM, unit excluded.

Query string: Find the recorded IC50 belonging to IPSATKRWG and report it.
Result string: 49.6

###

target: HLA-A*33:01
experiment-description: IEDB peptide-MHC binding, purified MHC/competitive/radioactivity; filed as Kd, often an IC50 or EC50 that approximates it; bounds were set here for any values at or beyond the usual limits of such assays
condition-context: source organism: Vaccinia virus WR
quantity-name: Kd

ATKRYPGVMY ... ≥ 70 µM
LLTACTIFYI ... 7.39 µM
ASILSLETVK ... ≥ 70 µM

Query string: # value lookup — system HLA-A*33:01, readout Kd, item ALYYVHSLLY
Result string: ≥ 24.2 µM

Query string: # value lookup — system HLA-A*33:01, readout Kd, item FMLIFNVKSK
Result string: 19.4 µM

Query string: # value lookup — system HLA-A*33:01, readout Kd, item ILSKIPYLR
Result string: 0.0974 µM

Query string: # value lookup — system HLA-A*33:01, readout Kd, item LIVSLCPTKK
Result string: ≥ 70 µM

Query string: # value lookup — system HLA-A*33:01, readout Kd, item IISRTRLYDY
Result string: ≥ 70 µM

Query string: # value lookup — system HLA-A*33:01, readout Kd, item RLQMAGVEVR
Result string: 4.95 µM

Query string: # value lookup — system HLA-A*33:01, readout Kd, item SSDSENNPEY
Result string: ≥ 70 µM

Query string: # value lookup — system HLA-A*33:01, readout Kd, item SSESLVYGIR
Result string: 0.623 µM

Query string: # value lookup — system HLA-A*33:01, readout Kd, item AMYYAVLSEY
Result string: 5.19 µM

Query string: # value lookup — system HLA-A*33:01, readout Kd, item SVTKSSSWK
Result string: ≥ 77.7 µM

Query string: # value lookup — system HLA-A*33:01, readout Kd, item KFAEESYTYY
Result string: ≥ 42.1 µM

Query string: # value lookup — system HLA-A*33:01, readout Kd, item MINYYNEMSR
Result string: 0.406 µM

Query string: # value lookup — system HLA-A*33:01, readout Kd, item PSILPSLIK
Result string: ≥ 77.7 µM

Query string: # value lookup — system HLA-A*33:01, readout Kd, item LLDSIKMIY
Result string: ≥ 48.6 µM

Query string: # value lookup — system HLA-A*33:01, readout Kd, item LIDLAFLIK
Result string: ≥ 77.7 µM

Query string: # value lookup — system HLA-A*33:01, readout Kd, item LIIGPMFSGK
Result string: 2.56 µM

Query string: # value lookup — system HLA-A*33:01, readout Kd, item AIDRQVSVK
Result string: ≥ 77.7 µM

Query string: # value lookup — system HLA-A*33:01, readout Kd, item QILDNAAKY
Result string: ≥ 77.7 µM

From: the Immune Epitope Database (IEDB)
